Each entry below carries its recorded melting point.

C[C@H](NS(=O)(=O)c1ccc(-c2c(C(N)=O)c3cc(F)c(OC(F)F)cc3n2C2CCC2)nc1)C(F)(F)F : 184 to 186 °C

# input Quickly give me recorded melting point for "N#Cc1c(-c2ncc(S(=O)(=O)NC(CF)CF)cn2)n(C2CCC2)c2cc(C3CCC3)ccc12"
# output 184 to 188 °C

# input Provide only the value of recorded melting point for "N#Cc1c(-c2ccc(S(=O)(=O)NC3(C(F)(F)F)CC3)cn2)n(C2CCC2)c2cc(OC(F)F)c(F)cc12"
# output 169 to 171 °C

---

Measured melting point by item

These solved cases illustrate the format of a correct answer.
CC(C)(C)NS(=O)(=O)c1ccc(-c2c(C#N)c3cc(F)c(C4CC4)cc3n2C2CCCC2)nc1 [compound 832] : 186 to 188 °C
CCc1cc2c(cc1F)c(C#N)c(-c1ccc(S(=O)(=O)NC(C)(C)C)cn1)n2-c1ncccc1F [compound 900] : 200 to 203 °C
Cc1cc(NS(=O)(=O)C(C)(C)C)ncc1-c1c(C(N)=O)c2cc(F)c(OC(F)F)cc2n1[C@H](C)C1CC1 [compound 1087] : 250 to 254 °C

# input Give me measured melting point, please, for this compound: N#Cc1c(-c2ccc(S(=O)(=O)NC(CF)CF)cn2)n(-c2ncccn2)c2cc(OC(F)F)ccc12 [compound 635]
# output 173 to 176 °C

# input Recall and state the measured melting point for CCc1cc2c(cc1F)c(C#N)c(-c1ccc(S(=O)(=O)N[C@@H](C)C(F)(F)F)cn1)n2-c1ccc(C#N)cc1 [compound 1007] .
# output 288 to 293 °C

# input Supply melting point value. Item: Cc1cc2c(cc1F)c(C(N)=O)c(-c1ccc(S(=O)(=O)N[C@@H](C)C(F)(F)F)cn1)n2C1CCCC1 [compound 700]
# output 244 to 246 °C

# input Supply melting point value. Item: CC(C)Oc1ccc2c(C#N)c(-c3ccc(NS(=O)(=O)C4CC4)cn3)n(CC3CC3)c2c1 [compound 280]
# output 150 to 155 °C

# input Tell us which melting point value is on record for Cc1cc2c(cc1F)c(C(N)=O)c(-c1ccc(S(=O)(=O)N[C@@H](C)C(F)(F)F)cn1)n2-c1cccnn1 [compound 912]
# output 176 to 181 °C

# input Please indicate melting point recorded for CC(C)(NS(=O)(=O)c1ccc(-c2c(C#N)c3ccc(OC(F)F)cc3n2-c2ccccn2)nc1)C(F)(F)F [compound 583]
# output 170 to 173 °C

# input Look up and report measured melting point for this entry: Cc1cc2c(cc1F)c(C(=O)O)c(-c1ccc(S(=O)(=O)N[C@@H](C)C(F)(F)F)cn1)n2C1CCC1 [compound 793]
# output 234 to 240 °C

# input Given C[C@@H](NS(=O)(=O)c1ccc(-c2c(C#N)c3ccc(OC(F)F)cc3n2-c2ccc(F)cc2)nc1)C(F)(F)F [compound 649] , respond with its melting point.
# output 199 to 203 °C

# input Identify the reported melting point for the following entry. CC(C)(C)NS(=O)(=O)c1ccc(-c2c(C#N)c3ccc(OC(F)F)cc3n2-c2ccccc2)nc1 [compound 624]
# output 216 to 218 °C

# input Complete the entry with melting point for C[C@H](NS(=O)(=O)c1ccc(-c2c(C#N)c3ccc(OC(F)F)cc3n2C2CCCCC2)nc1)C(F)(F)F [compound 341]
# output 149 to 151 °C

# input Please list melting point recorded for the compound N#Cc1c(-c2ccc(S(N)(=O)=O)cn2)n(C2CCC2)c2cc(OC(F)F)c(F)cc12 [compound 722]
# output 172 to 175 °C

# input Answer with the recorded melting point for the compound listed here: Cc1ccc2c(C#N)c(-c3ccc(S(=O)(=O)N[C@H](C)C(F)(F)F)cn3)n(C3CCCC3)c2c1 [compound 214]
# output 176 to 182 °C

# input Tell me measured melting point for N#Cc1c(-c2ncc(S(=O)(=O)NC(CF)CF)cn2)n(C2CCCCC2)c2cc(Cl)ccc12 [compound 517] please.
# output 228 to 234 °C

# input Let me know recorded melting point for Cc1ccc2c(C#N)c(-c3ccc(S(=O)(=O)N[C@@H](C)C(F)(F)F)cn3)n(-c3ccccn3)c2c1 [compound 476] , thanks.
# output 199 to 203 °C

# input Please give measured melting point of the following entry: CC(C)c1ccc2c(C#N)c(-c3ncc(S(=O)(=O)NC(CF)CF)cn3)n(C3CCC3)c2c1 [compound 186]
# output 214 to 222 °C
